tested on: 616215-338-R-J1-PDC complex spheroid growth, % test/control; experiment: Anticancer human tumor 616215-338-R-J1-PDC patient-derived colon adenocarcinoma cell line growth inhibition [Asc]; settings: curve of first compound; second compound 1 µM;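 further: spheroids exposed to agents for seven days before readout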
Please go through the items and note down their IC50.
Give your result in nM as a bare value.

Please give the measured IC50 for this compound: Cn1ncnc1[C@H]1c2n[nH]c(=O)c3cc(F)cc(c23)N[C@@H]1c1ccc(F)cc1 + Cc1c(S(C)(=O)=O)c(-c2cc(F)cc(N3CCN(c4ccc(NS(=O)(=O)c5ccc(NC(CCN6CCC(C(=O)OCCCP(=O)(O)O)CC6)CSc6ccccc6)c(S(=O)(=O)C(F)(F)F)c5)cc4)CC3)c2)c(-c2ccc(Cl)cc2)n1C(C)C
15.4

Also check O=C(c1ccc(F)c(F)c1Nc1ccc(I)cc1F)N1CC(O)([C@@H]2CCCCN2)C1 + Cc1c(S(C)(=O)=O)c(-c2cc(F)cc(N3CCN(c4ccc(NS(=O)(=O)c5ccc(NC(CCN6CCC(C(=O)OCCCP(=O)(O)O)CC6)CSc6ccccc6)c(S(=O)(=O)C(F)(F)F)c5)cc4)CC3)c2)c(-c2ccc(Cl)cc2)n1C(C)C
38.3

// next record Cc1nc(N2CCC3(CC2)COC(C)C3N)c(CO)nc1Sc1ccnc(N)c1Cl (stereo not given) + CNC(C)C(=O)NC1CN(S(=O)(=O)c2cccc(S(=O)(=O)N3CCC4CCC(C(=O)NC(c5ccccc5)c5ccccc5)N4C(=O)C(NC(=O)C(C)NC)C3)c2)CCC2CCC(C(=O)NC(c3ccccc3)c3ccccc3)N2C1=O
1770

For O=C(c1cc(Cc2n[nH]c(=O)c3ccccc23)ccc1F)N1CCN(C(=O)C2CC2)CC1 + Cc1c(S(C)(=O)=O)c(-c2cc(F)cc(N3CCN(c4ccc(NS(=O)(=O)c5ccc(NC(CCN6CCC(C(=O)OCCCP(=O)(O)O)CC6)CSc6ccccc6)c(S(=O)(=O)C(F)(F)F)c5)cc4)CC3)c2)c(-c2ccc(Cl)cc2)n1C(C)C then?
755
